Reference source for all entries: paper PMC9369442

# ASSAY_DETAILS: Rat pharmacokinetics after intravenous and oral administration
# Format: in vivo
# CONDITION_INFO: Sprague-Dawley, rat, plasma; rats, intravenous, 10 mg/kg; read-out: mean systemic total clearance
ATTRIBUTE_MEASURED: clearance (L/h/kg)

compound="C/C=C(\\C)C(=O)O[C@H]1[C@H](OC(C)=O)c2c(ccc3ccc(=O)oc23)OC1(C)C (relative stereo) [PCiv, trans-4′-acetyl-3′-tigloylkhellactone]" attribute_measured=clearance unit_text=L/h/kg readout_value=8.19

###

# ASSAY_DETAILS: Rat pharmacokinetics after intravenous and oral administration
# Format: in vivo
# CONDITION_INFO: Sprague-Dawley, rat, plasma, po, 10 mg/kg, rats, oral administration; read-out: half-life
ATTRIBUTE_MEASURED: half-life

compound="C/C=C(\\C)C(=O)O[C@H]1[C@H](OC(C)=O)c2c(ccc3ccc(=O)oc23)OC1(C)C (relative stereo) [PCiv, trans-4′-acetyl-3′-tigloylkhellactone]" readout_value="~1.62 h"

###

# ASSAY_DETAILS: Rat tissue distribution 15 min after intravenous bolus
# Type: in vivo
# CONDITION_INFO: Sprague-Dawley, rat, brain; rats, 15 min after intravenous 10 mg/kg; read-out: brain tissue-to-plasma concentration ratio
ATTRIBUTE_MEASURED: Kp at 15 min

molecule="C/C=C(\\C)C(=O)O[C@H]1[C@H](OC(C)=O)c2c(ccc3ccc(=O)oc23)OC1(C)C (relative stereo) [PCiv, trans-4′-acetyl-3′-tigloylkhellactone]" attribute_measured="Kp at 15 min" readout_value=6.4

###

# ASSAY_DETAILS: Rat pharmacokinetics after intravenous and oral administration
# Assay type: in vivo
# CONDITION_INFO: Sprague-Dawley, rat, plasma, po, 10 mg/kg, rats, oral, read-out: absolute bioavailability
ATTRIBUTE_MEASURED: bioavailability

compound="C/C=C(\\C)C(=O)O[C@H]1[C@H](OC(C)=O)c2c(ccc3ccc(=O)oc23)OC1(C)C (relative stereo) [PCiv, trans-4′-acetyl-3′-tigloylkhellactone]" readout_value=9.96%

###

# ASSAY_DETAILS: Rat pharmacokinetics after intravenous and oral administration
# Type: in vivo
# CONDITION_INFO: Sprague-Dawley, rat, plasma; rats, intravenous, 10 mg/kg; read-out: mean steady-state volume of distribution
ATTRIBUTE_MEASURED: Vd (L/kg)

compound="C/C=C(\\C)C(=O)O[C@H]1[C@H](OC(C)=O)c2c(ccc3ccc(=O)oc23)OC1(C)C (relative stereo) [PCiv, trans-4′-acetyl-3′-tigloylkhellactone]" attribute_measured=Vd unit_text=L/kg readout_value=6.62

###

# ASSAY_DETAILS: Rat tissue distribution 15 min after intravenous bolus
# Type: in vivo
# CONDITION_INFO: Sprague-Dawley, rat, intravenous, 10 mg/kg; rats, brain; read-out: distribution to target organ compared with the plasma concentration
ATTRIBUTE_MEASURED: Kp at 15 min

molecule="C/C=C(\\C)C(=O)O[C@H]1[C@H](OC(C)=O)c2c(ccc3ccc(=O)oc23)OC1(C)C (relative stereo) [PCiv, trans-4′-acetyl-3′-tigloylkhellactone]" readout_value=6.4
